# reported Th-T fluorescence, mean of three wells; entries follow
targetOfAssay: Aβ42 (Homo sapiens)
testDescription: Th-T (thioflavin-T) assay of Aβ42 aggregation
Assay type: biochemical
condition: time-course reading M100; Supplementary Fig. 47 source data
measurementType: Th-T fluorescence, mean of three wells

- C=C1CC[C@H]2[C@]3(C)C[C@@H](C=C(C)C)O[C@H]3CC[C@]2(C)[C@@H]1Cc1c(OC)oc(CO)c(C)c1=O [Compound 17]: 3.715
- C=C1CCC2C3(C)CC(C=C(C)C)OC3CCC2(C)C1Cc1c(OC)oc(C)c(C)c1=O (stereo not shown) [Compound 23]: 3.914
- C=C1CCC2C(C)(CCC=C(C)C)C(O)CCC2(C)C1Cc1c(OC)oc(CO)c(C(=O)OC)c1=O (stereo not shown) [Compound 13]: 1.04
- C=C1CCC2C(C)(CC(=O)C=C(C)C)C(O)CCC2(C)C1Cc1c(OC)oc(CO)c(C)c1=O (stereo not shown) [Compound 19]: 3.601
- C=C1CCC2C(C)(CCC=C(C)C)C(=O)CCC2(C)C1Cc1c(O)c(C)c(C)oc1=O (stereo not shown) [Compound 8]: 2.235
- C=C1CC[C@H]2[C@]3(C)C[C@H](C=C(C)C)O[C@H]3CC[C@]2(C)[C@@H]1Cc1c(OC)oc(CO)c(C)c1=O [Compound 18]: 3.864
- C=C1CC[C@@H]2[C@](C)(CC[C@H]3O[C@H](C=C(C)C)C[C@@]23C)[C@@H]1Cc1c(O)c(C)c(C)oc1=O [Compound 10, higginsianin A]: 3.074

---

targetOfAssay: Aβ42 (Homo sapiens)
testDescription: Th-T (thioflavin-T) assay of Aβ42 aggregation
Assay type: biochemical
condition: head suffix _10 (concentration 10); reading M81
# reported Th-T fluorescence of Aβ42 (sheet Fig. 7a), mean of three wells; entries follow
measurementType: Th-T fluorescence of Aβ42 (sheet Fig. 7a), mean of three wells

- C=C1CC[C@@H]2[C@](C)(CC[C@H]3O[C@H](C=C(C)C)C[C@@]23C)[C@@H]1Cc1c(OC)oc(CO)c(C(=O)OC)c1=O: 1.227
- C=C1CC[C@@H]2[C@](C)(CC[C@H]3O[C@H](C=C(C)C)C[C@@]23C)[C@@H]1Cc1c(OC)oc(CO)c(C)c1=O: 3.38
- C=C1CCC2C(C)(CCC=C(C)C)C(O)CCC2(C)C1Cc1c(OC)oc(CO)c(C)c1=O (centres unmarked): 3.199
- C=C1CCC2C(C)(CCC=C(C)C)C(O)CCC2(C)C1Cc1c(OC)oc(CO)c(C(=O)OC)c1=O (centres unmarked): 1.559
- C=C1CCC2C(C)(CCC=C(C)C)C(O)CCC2(C)C1Cc1c(OC)oc(C)c(C(=O)OC)c1=O (centres unmarked): 2.809

---

targetOfAssay: Aβ42 (Homo sapiens)
testDescription: Th-T (thioflavin-T) assay of Aβ42 aggregation
Format: biochemical
condition: column suffix _10; reading M88
# reported Fig. 7a Th-T reading, mean of three wells; entries follow
measurementType: Fig. 7a Th-T reading, mean of three wells

- C=C1CC[C@@H]2[C@](C)(CC[C@H]3O[C@H](C=C(C)C)C[C@@]23C)[C@@H]1Cc1c(OC)oc(CO)c(C(=O)OC)c1=O: 1.549
- C=C1CCC2C(C)(CCC=C(C)C)C(O)CCC2(C)C1Cc1c(OC)oc(CO)c(C(=O)OC)c1=O (centres unmarked): 1.544
- C=C1CCC2C(C)(CCC=C(C)C)C(O)CCC2(C)C1Cc1c(OC)oc(C)c(C(=O)OC)c1=O (centres unmarked): 2.833
- C=C1CCC2C(C)(CCC=C(C)C)C(O)CCC2(C)C1Cc1c(OC)oc(CO)c(C)c1=O (centres unmarked): 3.093
- C=C1CC[C@@H]2[C@](C)(CC[C@H]3O[C@H](C=C(C)C)C[C@@]23C)[C@@H]1Cc1c(OC)oc(CO)c(C)c1=O: 3.344

---

# reported MFE (control = 1) ave; entries follow
Tested on: MCF-7 cells
testDescription: mammosphere formation assay
Type: cell-based, human
condition: MCF-7, 5 μM, 7 days; relative to control = 1
measurementType: MFE (control = 1) ave

• COc1cccc2c1C(=O)c1c(O)c3c(c(O)c1C2=O)C[C@@](O)(C(=O)CO)C[C@@H]3O[C@H]1C[C@H](N)[C@H](O)[C@H](C)O1 [Dox, doxorubicin, reference compound] = 0.67
• C=C1CC[C@H]2[C@]3(C)C[C@H](C=C(C)C)O[C@H]3CC[C@]2(C)[C@@H]1Cc1c(OC)oc(CO)c(C)c1=O = 0.74
• C=C1CCC2C(C)(CCC=C(C)C)C(O)CCC2(C)C1Cc1c(OC)oc(CO)c(C)c1=O (stereo not shown) = 1.00
• C=C1CC[C@@H]2[C@](C)(CC[C@H]3O[C@H](C=C(C)C)C[C@@]23C)[C@@H]1Cc1c(OC)oc(C)c(C)c1=O = 0.47

---

testDescription: cytotoxicity in Drosophila l(2)mbn cells
Format: cell-based
condition: Drosophila, l(2)mbn cells (larval blood cell-derived), 20 µM, replicate 2, relative to DMSO 1%, read-out: % viability, viability 2
measurementType: viability at 20 µM (%)

• C=C1CCC2C(C)(CCC=C(C)C)C(O)CCC2(C)C1Cc1c(OC)oc(C)c(C(=O)OC)c1=O (stereo not shown) = 6.87
• C=C1CC[C@H]2[C@]3(C)C[C@@H](C=C(C)C)O[C@H]3CC[C@]2(C)[C@@H]1Cc1c(OC)oc(CO)c(C)c1=O = 3.89
• C=C1CC[C@H]2[C@]3(C)C[C@@H](C=C(C)C)O[C@H]3CC[C@]2(C)[C@@H]1Cc1c(O)c(C)c(C)oc1=O = 7.74
• C=C1CCC2C(C)(CC(=O)C=C(C)C)C(O)CCC2(C)C1Cc1c(O)c(C)c(C)oc1=O (stereo not shown) = 39.5
• C=C1CCC2C(C)(CCC=C(C)C)C(O)CCC2(C)C1Cc1c(OC)oc(CO)c(C)c1=O (stereo not shown) = 6.31
• C=C1CCC2C(C)(CCC=C(C)C)C(=O)CCC2(C)C1Cc1c(O)c(C)c(C)oc1=O (stereo not shown) = 2.53
• C=C1CC[C@@H]2[C@](C)(CC[C@H]3O[C@H](C=C(C)C)C[C@@]23C)[C@@H]1Cc1c(OC)oc(CO)c(C)c1=O = 2.05

---

targetOfAssay: Aβ42 (Homo sapiens, UniProt P05067)
Sequence (P05067 672-713): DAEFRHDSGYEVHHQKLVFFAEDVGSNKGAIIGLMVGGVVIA
testDescription: Th-T (thioflavin-T) assay of Aβ42 aggregation
Type: biochemical
condition: measurement M16; source data, Ab alone and No Ab as controls
Class (by Th-T assay plate reading, mean of three wells (Supplementary Fig. 47)) -- lower segment = under 1, middle segment = from 1 up to 2, upper segment = 2 and over

- C=C1CC[C@H]2[C@]3(C)C[C@H](C=C(C)C)O[C@H]3CC[C@]2(C)[C@@H]1Cc1c(OC)oc(C)c(C)c1=O [Compound 24]: upper segment
- C=C1CCC2C(C)(CC(=O)C=C(C)C)C(O)CCC2(C)C1Cc1c(O)c(C)c(C)oc1=O (centres unmarked) [Compound 7]: lower segment
- C=C1CC[C@@H]2[C@](C)(CC[C@H]3O[C@H](C=C(C)C)C[C@@]23C)[C@@H]1Cc1c(OC)oc(CO)c(C)c1=O [Compound 20]: upper segment
- C=C1CCC2C(C)(CCC=C(C)C)C(O)CCC2(C)C1Cc1c(OC)oc(CO)c(C)c1=O (centres unmarked) [Compound 12]: upper segment
- C=C1CC[C@H]2[C@]3(C)C[C@@H](C=C(C)C)O[C@H]3CC[C@]2(C)[C@@H]1Cc1c(O)c(C)c(C)oc1=O [Compound 5, subglutinol A]: middle segment
- C=C1CCC2C(C)(CCC=C(C)C)C(O)CCC2(C)C1Cc1c(OC)oc(C)c(C)c1=O (centres unmarked) [Compound 11]: upper segment
- C=C1CCC2C(C)(CC(=O)C=C(C)C)C(O)CCC2(C)C1Cc1c(OC)oc(C)c(C)c1=O (centres unmarked) [Compound 25]: upper segment
- C=C1CC[C@@H]2[C@](C)(CC[C@H]3O[C@H](C=C(C)C)C[C@@]23C)[C@@H]1Cc1c(O)c(C)c(C)oc1=O [Compound 10, higginsianin A]: middle segment
- C=C1CCC2C(C)(CCC=C(C)C)C(O)CCC2(C)C1Cc1c(OC)oc(CO)c(C(=O)OC)c1=O (centres unmarked) [Compound 13]: lower segment
- C=C1CCC2C(C)(CCC=C(C)C)C(O)CCC2(C)C1Cc1c(O)c(C)c(C)oc1=O (centres unmarked) [Compound 4]: middle segment
- C=C1CC[C@@H]2[C@](C)(CC[C@H]3O[C@H](C=C(C)C)C[C@@]23C)[C@@H]1Cc1c(OC)oc(CO)c(C(=O)OC)c1=O [Compound 21]: lower segment
- C=C1CCC2C(C)(CCC=C(C)C)C(=O)CCC2(C)C1Cc1c(O)c(C)c(C)oc1=O (centres unmarked) [Compound 8]: lower segment
